- Assayed Target: CaRvs167
- Assay Summary: SPOT peptide array binding signal intensity (averaged, normalized) (arbitrary units (background-subtracted, floor 0; scale differs between SH3 domains)); higher = stronger binding of the SH3 domain to the peptide
Endpoint: SPOT peptide array binding signal intensity

Check out these entries, answers already filled in.
>  <Binder>
PPIPIVPSSPAPPLP

>  <Recorded Result>
≤ 0

$$$$
>  <Binder>
VNIPSPSSSPPPIPK

>  <Recorded Result>
≤ 0

$$$$

In the following, a different binder is considered.
Briefly, SPOT peptide array binding signal intensity measured for APKHAPPPVPNETDN : ≤ 0

Where do these numbers come from? They come from the supplement of paper PMC4466140.
